# credit: ChEMBL document CHEMBL5346890

Give measured Tmax for each item. Keep answers brief.
Experiment: Tmax in NSG mouse at 10 mg/kg, ip
Type: ADME, organism-based
Details: in vivo
Entry rule: numbers only, all in min.

Exam item: Requested read-out: Tmax. Entry: N#Cc1ncc(N2C(=O)C3(CCC3)N(c3ccc(OC4CCN(C(=O)O[C@@H]5CCC[C@]6(C5)OOC5(O6)C6CC7CC(C6)CC5C7)CC4)nc3)C2=S)cc1C(F)(F)F (stereo partly drawn)
Marked response: 30

Exam item: Given the entry CNC(=O)c1ccc(N2C(=S)N(c3cnc(C#N)c(C(F)(F)F)c3)C(=O)C23CCC3)cc1F [APALUTAMIDE] , report its measured Tmax.
Marked response: 240

Exam item: // Tmax lookup, key: CN(CCN(C)C(=O)O[C@@H]1CCC[C@]2(C1)OOC1(O2)C2CC3CC(C2)CC1C3)C(=O)Oc1ccc(N2C(=S)N(c3ccc(C#N)c(C(F)(F)F)c3)C(=O)C23CCC3)cc1 (stereo partly drawn)
Marked response: 30
